Origin of measurements: ChEMBL document CHEMBL3120060

System: SK-MEL-5
Assay: Cytotoxicity against human SK-MEL-5 cells assessed as cell growth at 10 uM after 48 hrs by SRB assay
Type: functional
Settings: SK-MEL-5, 48 h, read-out: Activity
metric: growth at 10 µM (%)
Number in %, nothing else.

- query-smiles: "O=C1CC(=O)N(c2cn3c(-c4ccccc4)csc3n2)N1"
  experimental-system: "SK-MEL-5"
  endpoint-value: 89.6

Switching to the query record.
The reported growth at 10 µM of the compound "Cc1cc(C)n(-c2cn3c(-c4ccccc4)csc3n2)n1" was 94.2

====

Each record here notes measured growth at 10 µM.
Test system: UACC-62
Assay: Cytotoxicity against human UACC62 cells assessed as cell growth at 10 uM after 48 hrs by SRB assay
Type: functional
Settings: UACC-62, 48 h, read-out: Activity
Provide the reading as a plain figure in %.

// known answers, use as guide
- query-smiles: "CC1=NN(c2cn3c(-c4ccc(Cl)cc4)csc3n2)C(=O)C1"
  growth at 10 µM [%]: 81.9
- query-smiles: "CC1=NN(c2cn3c(-c4ccc(C)cc4)csc3n2)C(=O)C1"
  growth at 10 µM [%]: 74.1
- query-smiles: "Cc1ccc(-c2csc3nc(-n4nc(C)cc4C)cn23)cc1"
  growth at 10 µM [%]: 90.5
- query-smiles: "O=C1CC(=O)N(c2cn3c(-c4ccccc4)csc3n2)N1"
  growth at 10 µM [%]: 85
- query-smiles: "O=C1CC(=O)N(c2cn3c(-c4ccc(Cl)cc4)csc3n2)N1"
  growth at 10 µM [%]: 90.1

Form: compound = "CC1=NN(c2cn3c(-c4ccccc4)csc3n2)C(=O)C1" ; growth at 10 µM = 91.1
